Test: chemical genetic growth profiling, strain panel (AID 1159580);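 also: tested at 20 µM; growth read once vehicle control cultures reached saturation at 30 °C; 1 = growth at the plate median or of vehicle wells; lower values mean less growth of the strain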
Conditions: S. cerevisiae deletion strains, growth OD, locus YDR318W, strain mcm21, hits give low values
Hit rate of the full screen: of about 5,500 compounds, about 2,000 (36%) were called active. Inconclusive results (about 18%) are left out. Some of the results follow.
ENDPOINT NAME: normalized growth
Provide a numeric answer; units are not to be included.

Prompt: GET /values?readout=normalized growth&item= Cc1c(NC(=O)c2cccnc2)c(=O)n(-c2ccccc2)n1C
Completion: 1

Prompt: Consider the compound shown here: CC1(C)C(=O)[C@@H]2C[C@@]3(O)C4=CC(=O)O[C@@H](c5ccoc5)[C@]4(C)CCC3[C@@](C)(C2=O)[C@H]1CC(=O)O (stereo not given in full) What is its recorded normalized growth?
Completion: 0.996

Prompt: Any idea what normalized growth was measured for COc1ccc(C2C(=O)c3ccccc3C2=O)cc1 ?
Completion: 0.993

Prompt: normalized growth lookup needed for COc1cc2c(cc1O)CCNC2C (stereo not given) , thanks.
Completion: 0.982

Prompt: Quick check: normalized growth of COC(=O)C[C@H]1C(C)(C)[C@@H](O)[C@@H]2CC3=C4C=C(OC)O[C@@H](c5ccoc5)[C@]4(C)CCC3[C@@]1(C)C2=O (stereo not given in full) ?
Completion: 0.995

Prompt: I have this compound here, CCOc1cccc(C(=O)c2ccc(O)c(O)c2O)c1 , and I need its recorded normalized growth.
Completion: 0.877

Prompt: Given the compound NC1CC1c1ccccc1 (stereo not given) , what is its reported normalized growth?
Completion: 0.979

Prompt: Return reported normalized growth; argument: NC1C[C@H]1c1ccccc1 (stereo not given in full)
Completion: 0.972

Prompt: Query (compound): CCc1cccc2c3c([nH]c12)C(CC)(CC(=O)O)OCC3 (stereo not given) ; field requested: normalized growth
Completion: 1.02

Prompt: Need normalized growth, item COc1c2c(cc3c1OCO3)C13C=C[C@H](OC)CC1N(C2)CC3O (stereo not given in full)
Completion: 0.989

Prompt: Would you kindly share the measured normalized growth for CO[C@H]1C[C@H](O[C@H]2[C@H](C)[C@@H](OC3O[C@H](C)C[C@H](N(C)C)[C@H]3OC(C)=O)[C@@H](C)C[C@]3(CO3)C(=O)[C@H](C)[C@@H](OC(C)=O)[C@@H](C)[C@@H](C)OC(=O)[C@@H]2C)O[C@@H](C)[C@@H]1OC(C)=O (stereo not given in full) ?
Completion: 0.993

Prompt: # get_value(readout='normalized growth', item= COc1ccc2c(c1)[C@]13CCCC[C@H]1[C@H](C2)N(C)CC3 )
Completion: 0.988

Prompt: Returns the measured normalized growth for the input compound. Input: CCC1(CC)C(=O)C=CNC1=O
Completion: 1.01

Prompt: What does the record list as normalized growth for O=C1c2ccccc2C(=O)C1c1ccccc1 ?
Completion: 1.01

Prompt: Return reported normalized growth; argument: COC(=O)[C@]1(C)CC[C@]2(C)CC[C@]3(C)C4=CC=C5C(=CC(=O)C(O)=C5C)[C@]4(C)CC[C@@]3(C)[C@@H]2C1
Completion: 0.852

Reference source for all entries: PubChem BioAssay AID1159580
